Target: Secreted frizzled-related protein 1 (Homo sapiens) (UniProt Q8N474)
Sequence (Q8N474 whole entry): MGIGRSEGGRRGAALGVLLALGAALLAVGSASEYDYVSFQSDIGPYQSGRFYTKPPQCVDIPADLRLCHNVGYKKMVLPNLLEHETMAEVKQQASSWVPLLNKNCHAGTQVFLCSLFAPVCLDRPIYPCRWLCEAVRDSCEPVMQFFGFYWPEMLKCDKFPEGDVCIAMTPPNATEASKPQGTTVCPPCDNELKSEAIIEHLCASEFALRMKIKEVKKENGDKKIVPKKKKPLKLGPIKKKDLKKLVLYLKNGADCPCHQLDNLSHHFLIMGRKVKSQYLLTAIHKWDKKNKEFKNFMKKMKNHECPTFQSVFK
Experiment: Inhibition of human sFRP1 expressed in human U2OS assessed as fold induction in luciferase activity at 15 uM by TCF-luciferase reporter gene assay relative to control
Property Measured: fold change (FC)
Simply state the number, no unit and no words.

Give its fold change (FC) value. Item: COc1ccc(S(=O)(=O)c2ccccc2)cc1S(=O)(=O)NCCc1ccccc1
1.5

Record request: fold change (FC) value, item CCc1ccc(S(=O)(=O)c2ccccc2)cc1S(=O)(=O)NCCCN(C)C
3.3

Need fold change (FC), item Cc1ccc(S(=O)(=O)c2ccccc2)cc1S(=O)(=O)NCCc1ccccc1
2.5

Bench note: what fold change (FC) did CCc1ccc(S(=O)(=O)c2ccccc2)cc1S(=O)(=O)NCCc1ccccc1 show?
3.3

Any idea what fold change (FC) was measured for Cc1ccc(S(=O)(=O)c2ccc(F)cc2)cc1S(=O)(=O)NCCc1ccccc1 ?
2.7

What value of fold change (FC) has been reported for the following compound? Cc1ccc(S(=O)(=O)c2ccc(C)c(S(=O)(=O)NCCc3ccccc3)c2)cc1
2.2

// lookup fold change (FC) for CCc1ccc(S(=O)(=O)c2ccccc2)cc1S(=O)(=O)NCCc1ccc(OC)c(OC)c1
3

Given CCc1ccc(S(=O)(=O)c2ccccc2)cc1S(=O)(=O)NCCCN1CCCC1 , state its recorded fold change (FC).
4.2

Which fold change (FC) value is on record for Cc1ccc(S(=O)(=O)c2ccccc2)cc1S(=O)(=O)NCCCc1ccccc1 ?
1.3

====

Assay: Aqueous solubility at pH 7.4
Format: physicochemical
Conditions: buffer
Property Measured: solubility (µg/mL)
Kindly answer with a numeric value in µg/mL, unit omitted.

Give its solubility value. Item: Cc1ccc(S(=O)(=O)c2ccccc2)cc1S(=O)(=O)NCCc1ccccc1
1

Which solubility value is on record for CCc1ccc(S(=O)(=O)c2ccccc2)cc1S(=O)(=O)NCCCN(C)C ?
26

What value of measured solubility is listed for CCc1ccc(S(=O)(=O)c2ccccc2)cc1S(=O)(=O)NCCc1ccc(OC)c(OC)c1 ?
1

====

Please respond with reported inhibition at 3 µM for every item in the list.
Biological target: CYP2D6 (Homo sapiens)
Sequence (P10635 whole entry): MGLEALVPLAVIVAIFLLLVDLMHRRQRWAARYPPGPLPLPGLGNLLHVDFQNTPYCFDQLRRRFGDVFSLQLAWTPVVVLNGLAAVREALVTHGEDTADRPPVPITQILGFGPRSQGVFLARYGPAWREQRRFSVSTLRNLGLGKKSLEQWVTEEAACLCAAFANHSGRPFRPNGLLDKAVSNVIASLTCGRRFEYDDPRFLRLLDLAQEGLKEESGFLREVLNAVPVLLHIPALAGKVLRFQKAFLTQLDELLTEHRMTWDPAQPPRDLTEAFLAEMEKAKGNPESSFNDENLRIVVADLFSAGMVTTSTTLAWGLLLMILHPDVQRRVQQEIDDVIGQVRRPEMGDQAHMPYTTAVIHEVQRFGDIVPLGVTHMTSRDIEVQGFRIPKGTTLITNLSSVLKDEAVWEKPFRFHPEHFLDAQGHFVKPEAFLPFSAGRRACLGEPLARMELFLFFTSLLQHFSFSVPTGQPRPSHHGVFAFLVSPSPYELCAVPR
Assay: Inhibition of CYP2D6 at 3 uM
Format: ADME
Write the numeric value and follow it with the unit.

Could you tell me which inhibition at 3 µM is on file for CCc1ccc(S(=O)(=O)c2ccccc2)cc1S(=O)(=O)NCCCN1CCCC1 ?
25%

Which inhibition at 3 µM value belongs to Cc1ccc(S(=O)(=O)c2ccccc2)cc1S(=O)(=O)NCCc1ccccc1 ?
12%

What inhibition at 3 µM value was documented for this compound, CCc1ccc(S(=O)(=O)c2ccccc2)cc1S(=O)(=O)NCCc1ccc(OC)c(OC)c1 ?
11%

// inhibition at 3 µM lookup, key: CCc1ccc(S(=O)(=O)c2ccccc2)cc1S(=O)(=O)NCCCN(C)C
9%

====

Assay: Metabolic stability in rat microsomes assessed as half life
Assay type: ADME, Microsome
Property Measured: half-life (min)
Give your result in min as a bare value.

Requested read-out: half-life. Entry: CCc1ccc(S(=O)(=O)c2ccccc2)cc1S(=O)(=O)NCCCN1CCCC1
16

What measured half-life goes with CCc1ccc(S(=O)(=O)c2ccccc2)cc1S(=O)(=O)NCCCN(C)C ?
12

Please report the recorded half-life for Cc1ccc(S(=O)(=O)c2ccccc2)cc1S(=O)(=O)NCCc1ccccc1 .
5

Look up half-life for this compound: CCc1ccc(S(=O)(=O)c2ccccc2)cc1S(=O)(=O)NCCc1ccc(OC)c(OC)c1
1

====

Target: Secreted frizzled-related protein 1 (Homo sapiens)
Sequence (Q8N474 whole entry): as the sequence (Q8N474 whole entry) above
Assay: Inhibition of human sFRP1 expressed in human U2OS assessed as luciferase activity by TCF-luciferase reporter gene assay
Property Measured: EC50 (µM)
Kindly answer with a numeric value in µM, unit omitted.

Suppose we examine the compound CCc1ccc(S(=O)(=O)c2ccccc2)cc1S(=O)(=O)NCCCN1CCCC1 ; what EC50 value has been reported?
9

What value of EC50 has been recorded for this entry: CCc1ccc(S(=O)(=O)c2ccccc2)cc1S(=O)(=O)NCCCN(C)C
1.27

What value of EC50 has been reported for the following compound? CCc1ccc(S(=O)(=O)c2ccccc2)cc1S(=O)(=O)NCCc1ccc(OC)c(OC)c1
6.97

What value of measured EC50 is listed for Cc1ccc(S(=O)(=O)c2ccccc2)cc1S(=O)(=O)NCCc1ccccc1 ?
3.88

====

Answer each item with its documented inhibition at 3 µM.
Target: CYP2C9 (Homo sapiens, UniProt P11712)
Sequence (P11712 whole entry): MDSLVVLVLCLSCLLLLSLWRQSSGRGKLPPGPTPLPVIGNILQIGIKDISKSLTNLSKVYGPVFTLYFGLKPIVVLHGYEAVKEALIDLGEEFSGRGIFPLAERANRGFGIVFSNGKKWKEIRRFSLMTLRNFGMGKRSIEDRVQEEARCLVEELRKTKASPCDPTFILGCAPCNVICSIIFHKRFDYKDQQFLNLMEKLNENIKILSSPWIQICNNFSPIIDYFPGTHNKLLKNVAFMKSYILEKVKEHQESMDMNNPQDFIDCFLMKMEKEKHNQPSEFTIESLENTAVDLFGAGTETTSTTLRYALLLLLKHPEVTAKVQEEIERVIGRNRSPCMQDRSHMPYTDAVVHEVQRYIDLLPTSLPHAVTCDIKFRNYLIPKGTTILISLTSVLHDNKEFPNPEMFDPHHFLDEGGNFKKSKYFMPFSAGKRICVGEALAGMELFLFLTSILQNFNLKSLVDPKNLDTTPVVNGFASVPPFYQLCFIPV
Assay: Inhibition of CYP2C9 at 3 uM
Assay type: ADME
Quick note: give the figure in %, leave out the unit.

Requested field: inhibition at 3 µM. Item: Cc1ccc(S(=O)(=O)c2ccccc2)cc1S(=O)(=O)NCCc1ccccc1
41

Given the entry CCc1ccc(S(=O)(=O)c2ccccc2)cc1S(=O)(=O)NCCCN(C)C , report its measured inhibition at 3 µM.
14

Requested read-out: inhibition at 3 µM. Entry: CCc1ccc(S(=O)(=O)c2ccccc2)cc1S(=O)(=O)NCCCN1CCCC1
25

Any idea what inhibition at 3 µM was measured for CCc1ccc(S(=O)(=O)c2ccccc2)cc1S(=O)(=O)NCCc1ccc(OC)c(OC)c1 ?
84

====

Can you tell me inhibition at 3 µM for the items I'm about to list?
Target: CYP3A4 (Homo sapiens)
Sequence (P08684 whole entry): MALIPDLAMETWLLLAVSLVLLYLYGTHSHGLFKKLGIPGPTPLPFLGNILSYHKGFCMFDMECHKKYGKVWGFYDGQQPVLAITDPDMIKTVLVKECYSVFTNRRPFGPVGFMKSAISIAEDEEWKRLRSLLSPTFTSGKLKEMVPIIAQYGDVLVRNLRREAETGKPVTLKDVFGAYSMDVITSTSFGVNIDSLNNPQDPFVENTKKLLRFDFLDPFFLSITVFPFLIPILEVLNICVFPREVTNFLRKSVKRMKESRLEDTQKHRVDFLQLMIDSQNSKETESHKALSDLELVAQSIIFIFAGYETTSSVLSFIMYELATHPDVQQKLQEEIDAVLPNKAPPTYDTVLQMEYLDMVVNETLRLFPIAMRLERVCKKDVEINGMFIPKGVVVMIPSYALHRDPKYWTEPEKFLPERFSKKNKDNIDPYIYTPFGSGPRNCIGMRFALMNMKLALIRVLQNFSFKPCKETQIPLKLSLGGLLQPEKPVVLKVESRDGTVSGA
Assay: Inhibition of CYP3A4 at 3 uM
Type: ADME
# output: bare number, implied unit %

Entry CCc1ccc(S(=O)(=O)c2ccccc2)cc1S(=O)(=O)NCCCN1CCCC1 , system CYP3A4 (Homo sapiens): what inhibition at 3 µM was measured?
78

Find inhibition at 3 µM (CYP3A4 (Homo sapiens)) for the entry CCc1ccc(S(=O)(=O)c2ccccc2)cc1S(=O)(=O)NCCc1ccc(OC)c(OC)c1
96

API: value(readout= inhibition at 3 µM, system= CYP3A4 (Homo sapiens), query= CCc1ccc(S(=O)(=O)c2ccccc2)cc1S(=O)(=O)NCCCN(C)C )
43

I'm curious: which inhibition at 3 µM was measured for Cc1ccc(S(=O)(=O)c2ccccc2)cc1S(=O)(=O)NCCc1ccccc1 tested on CYP3A4 (Homo sapiens)?
70
